- assayedTarget: serotonin 5-HT2 receptors (Rattus norvegicus)
- Sequence (P14842 whole entry): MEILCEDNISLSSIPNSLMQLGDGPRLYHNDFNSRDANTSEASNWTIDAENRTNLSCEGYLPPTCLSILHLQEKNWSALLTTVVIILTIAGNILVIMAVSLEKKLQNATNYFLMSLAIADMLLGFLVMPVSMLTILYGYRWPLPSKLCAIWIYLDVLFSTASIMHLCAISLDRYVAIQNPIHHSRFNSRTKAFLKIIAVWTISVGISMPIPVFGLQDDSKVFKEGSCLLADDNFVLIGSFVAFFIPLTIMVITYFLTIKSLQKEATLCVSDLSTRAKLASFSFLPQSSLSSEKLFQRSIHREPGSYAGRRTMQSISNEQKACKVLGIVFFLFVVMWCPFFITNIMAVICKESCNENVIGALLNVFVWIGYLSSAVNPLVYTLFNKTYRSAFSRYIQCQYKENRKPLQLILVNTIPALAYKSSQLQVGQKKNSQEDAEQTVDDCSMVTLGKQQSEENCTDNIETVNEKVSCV
pKi: −log10 of the molar value.
pKi below 7 gives N; pKi at or above it gives Y.

Completed entries (count: 10):
| molecule | assayedTarget | groupLabel |
| --- | --- | --- |
| O=C(CCCN1C2CCC1c1c([nH]c3ccc(F)cc13)C2)c1ccc(F)cc1 (centres unmarked) [4 F H (CH2)3 CO 4-FPh 2] | serotonin 5-HT2 receptors (Rattus norvegicus) | Y |
| O=C(CCCN1C2CCC1c1c(n(-c3ccccc3)c3ccccc13)C2)c1ccc(F)cc1 (centres unmarked) [2 H Ph (CH2)3 CO 4-FPh 2] | serotonin 5-HT2 receptors (Rattus norvegicus) | N |
| c1ccc(CCCCN2C3CCC2c2c(n(Cc4ccccc4)c4ccccc24)C3)cc1 (centres unmarked) [5 H Bn (CH2)4 Ph 2] | serotonin 5-HT2 receptors (Rattus norvegicus) | N |
| Fc1ccc(CCCCN2C3CCC2c2c([nH]c4ccccc24)C3)cc1 (centres unmarked) [1 H H (CH2)4 4-FPh 2] | serotonin 5-HT2 receptors (Rattus norvegicus) | Y |
| Fc1ccc(C(=CCCN2C3CCCC2c2c([nH]c4ccccc24)C3)c2ccc(F)cc2)cc1 (centres unmarked) [11 H H (CH2)2 CHC (4-FPh)2 3] | serotonin 5-HT2 receptors (Rattus norvegicus) | N |
| Fc1ccc(OCCCN2C3CCC2c2c([nH]c4ccccc24)C3)cc1 (centres unmarked) [1 H H (CH2)3 O-4-FPh 2] | serotonin 5-HT2 receptors (Rattus norvegicus) | Y |
| Fc1ccc2[nH]c3c(c2c1)C1CCCC(C3)N1 (centres unmarked) [12 F H -- H 3] | serotonin 5-HT2 receptors (Rattus norvegicus) | N |
| c1ccc(CCCCN2C3CCC2c2c([nH]c4ccccc24)C3)cc1 (centres unmarked) [1 H H (CH2)4 Ph 2] | serotonin 5-HT2 receptors (Rattus norvegicus) | Y |
| c1ccc(OCCCCN2C3CCC2c2c([nH]c4ccccc24)C3)cc1 (centres unmarked) [1 H H (CH2)4 OPh 2] | serotonin 5-HT2 receptors (Rattus norvegicus) | Y |
| O=C(CCCN1C2CCCC1c1c([nH]c3ccc(F)cc13)C2)c1ccc(F)cc1 (centres unmarked) [12 F H (CH2)3 CO 4-FPh 3] | serotonin 5-HT2 receptors (Rattus norvegicus) | Y |

Inquiry: Is the recorded value of pKi equal to or greater than 7 for this molecule? Fc1ccc2[nH]c3c(c2c1)C1CCCC(C3)N1CCCCc1ccccc1 (centres unmarked) [12 F H (CH2)4 Ph 3]
Reply text: N

Inquiry: Hi, just wondering whether O=C(CCCN1C2CCC1c1c([nH]c3ccccc13)C2)c1ccc(F)cc1 (centres unmarked) [1 H H (CH2)3 CO 4-FPh 2] shows pKi of 7 or higher.
Reply text: Y

Inquiry: Is pKi at least 7? Consider Clc1ccc(OCCN2C3CCC2c2c([nH]c4ccccc24)C3)cc1 (centres unmarked) [1 H H (CH2)2 O-4-ClPh 2]
Reply text: N
